Values compiled from patent US11685732B2.

Assign IC50 to each entry below.
# test_system: KAT-5 (Homo sapiens (Human), UniProt Q92993)
# Sequence (Q92993 other isoform, or with tags, fused parts or gaps): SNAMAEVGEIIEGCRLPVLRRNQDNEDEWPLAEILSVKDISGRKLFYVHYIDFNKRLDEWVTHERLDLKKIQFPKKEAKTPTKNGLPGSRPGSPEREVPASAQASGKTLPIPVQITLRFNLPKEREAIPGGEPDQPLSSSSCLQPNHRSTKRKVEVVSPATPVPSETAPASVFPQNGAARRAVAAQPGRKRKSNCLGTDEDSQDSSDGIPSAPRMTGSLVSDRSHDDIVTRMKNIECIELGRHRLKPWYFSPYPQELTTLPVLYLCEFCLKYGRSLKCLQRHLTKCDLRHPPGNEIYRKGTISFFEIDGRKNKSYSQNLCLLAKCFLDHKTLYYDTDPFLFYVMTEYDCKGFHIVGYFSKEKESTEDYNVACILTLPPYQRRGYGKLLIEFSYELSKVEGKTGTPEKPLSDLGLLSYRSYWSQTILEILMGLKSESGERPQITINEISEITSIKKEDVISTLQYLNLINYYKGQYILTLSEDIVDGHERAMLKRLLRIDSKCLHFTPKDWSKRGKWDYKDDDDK
# assay_procedure: KAT-5 biochemical inhibition assay (SAMDI mass spectrometry)

(Q) Lookup: IC50 / KAT-5 (Homo sapiens (Human), UniProt Q92993) / "COc1ccc(CNC(=O)N[C@H]2C[C@H](CS(=O)(=O)NNC(=O)c3cc(-c4cn(C)cn4)cc(Cl)c3F)C2)cc1"
(A) < 10 µM

(Q) Under KAT-5 (Homo sapiens (Human), UniProt Q92993): IC50 value of "CN(C)C(=O)CS(=O)(=O)NNC(=O)c1cc(-c2cn(C)cn2)cc(Cl)c1F" ?
(A) 10 to 50 µM

(Q) Look up IC50 with KAT-5 (Homo sapiens (Human), UniProt Q92993) for this compound: "Cn1cnc(-c2cc(Cl)c(F)c(C(=O)NNS(=O)(=O)C[C@H]3CC[C@H](NC(N)=O)CC3)c2)c1"
(A) < 10 µM

(Q) Fill in the recorded IC50 for this compound, with KAT-5 (Homo sapiens (Human), UniProt Q92993) as test system: "Cn1cnc(-c2cc(Cl)c(F)c(C(=O)NNS(=O)(=O)c3cccc(OCc4ccccc4)n3)c2)c1"
(A) < 10 µM

(Q) Notebook entry, KAT-5 (Homo sapiens (Human), UniProt Q92993) assay: IC50 of "CNc1ccccc1S(=O)(=O)NNC(=O)c1cc(-c2cn(C)cn2)cc(Cl)c1F" = ?
(A) < 10 µM

(Q) Lab request: please report IC50 under test system KAT-5 (Homo sapiens (Human), UniProt Q92993) for "Cn1cnc(-c2cc(Cl)c(F)c(C(=O)NNS(=O)(=O)c3cnn(CCOCc4ccccc4)c3)c2)c1"
(A) 10 to 50 µM

* * *

Task for the reader: assign each of the following compounds its reported pIC50.
# test_system: KAT-6A (Homo sapiens (Human), UniProt Q92794)
# Sequence (Q92794 other isoform, or with tags, fused parts or gaps): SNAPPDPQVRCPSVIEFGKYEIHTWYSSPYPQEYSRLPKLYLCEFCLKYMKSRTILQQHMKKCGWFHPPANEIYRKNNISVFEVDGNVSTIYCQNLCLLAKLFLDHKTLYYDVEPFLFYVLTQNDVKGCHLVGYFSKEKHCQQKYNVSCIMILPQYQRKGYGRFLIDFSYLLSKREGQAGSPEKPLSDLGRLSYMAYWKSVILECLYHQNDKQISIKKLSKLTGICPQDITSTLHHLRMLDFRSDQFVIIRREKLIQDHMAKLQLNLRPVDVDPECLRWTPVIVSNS
# assay_procedure: KAT-6A biochemical inhibition assay (SAMDI mass spectrometry)
pIC50: −log10 of the molar value.

(Q) Look up pIC50: Cn1cnc(-c2cc(Cl)c(F)c(C(=O)NNS(=O)(=O)CC3CCCC(NC(=O)c4ccccc4)C3)c2)c1 (stereo not shown) [Compound I-230]
(A) > 5.00

(Q) Which pIC50 is listed for CN1CC(CS(=O)(=O)NNC(=O)c2cc(-c3cn(C)cn3)cc(Cl)c2F)CC1=O (stereo not shown) [Compound I-224] ?
(A) 4.30 to 5.00

(Q) Which pIC50 reading was recorded for the compound CC([C@H]1CC[C@@H](N)CC1)S(=O)(=O)NNC(=O)c1cc(-c2cn(C)cn2)cc(Cl)c1F (stereo partly shown) [Compound I-448] ?
(A) < 4.00

(Q) Please report the recorded pIC50 for CCOc1ccc(S(=O)(=O)NNC(=O)c2cc(-c3cn(C)cn3)cc(Cl)c2F)c(F)c1 [Compound I-441] .
(A) > 5.00

* * *

I'd appreciate it if you could supply IC50 values for the items below.
# test_system: KAT-6A (Homo sapiens (Human))
# assay_procedure: KAT-6A biochemical inhibition assay (SAMDI mass spectrometry)

(Q) Need IC50, item "Cn1cnc(-c2cc(Cl)c(F)c(C(=O)NNS(=O)(=O)c3cn(C)nn3)c2)c1"
(A) 10 to 50 µM

(Q) Return reported IC50; argument: Cn1cnc(-c2cc(Cl)c(F)c(C(=O)NNS(=O)(=O)CC3CCN(S(=O)(=O)C4CCC4)C3)c2)c1 (stereo not drawn)
(A) < 10 µM

(Q) State the recorded IC50 for this entry: COCCNC(=O)N1CCC(CS(=O)(=O)NNC(=O)c2cc(-c3cn(C)cn3)cc(Cl)c2F)C1 (stereo not drawn)
(A) < 10 µM

(Q) Reported IC50 for CC([C@H]1CC[C@@H](NC(=O)OC(C)(C)C)CC1)S(=O)(=O)NNC(=O)c1cc(-c2cn(C)cn2)cc(Cl)c1F (stereo partly drawn) : what is it?
(A) < 10 µM

(Q) Need IC50, item "Cc1nc(-c2cc(Cl)c(F)c(C(=O)NNS(=O)(=O)C3CCOCC3)c2)cn1C"
(A) 10 to 50 µM

(Q) Which IC50 is listed for "Cn1cnc(-c2cc(Cl)c(F)c(C(=O)NNS(=O)(=O)c3cccc(NCc4ccccc4)n3)c2)c1" ?
(A) < 10 µM

(Q) Fill in: IC50 of "O=C(NNS(=O)(=O)CC1CCOCC1)c1cc(-c2cocn2)cc(Cl)c1F" is ___
(A) 10 to 50 µM

(Q) Would you mind telling me what IC50 value was observed for Cn1cnc(-c2cc(Cl)c(F)c(C(=O)NNS(=O)(=O)CC3CCOC3)c2)c1 (stereo not drawn) ?
(A) < 10 µM

(Q) GET /values?readout=IC50&item= "COCCc1nc(-c2cc(Cl)c(F)c(C(=O)NNS(=O)(=O)C3CCOCC3)c2)cn1C"
(A) 10 to 50 µM

(Q) Form field: reported IC50 of "Cn1cnc(-c2cc(Cl)c(F)c(C(=O)NNS(=O)(=O)C[C@H]3CC[C@H]4CC[C@@H]3N4)c2)c1"
(A) 10 to 50 µM

(Q) Which IC50 is listed for "Cn1cc(-c2cc(Cl)c(F)c(C(=O)NNS(=O)(=O)CC3CCOCC3)c2)cn1" ?
(A) > 100 µM

(Q) GET /values?readout=IC50&item= Cn1cnc(-c2cc(Cl)c(F)c(C(=O)NNS(=O)(=O)Cc3ccnn3C)c2)c1 [Compound I-482]
(A) 10 to 50 µM

(Q) I am curious: what IC50 value has been reported for CCS(=O)(=O)N1CCCC(CS(=O)(=O)NNC(=O)c2cc(-c3cn(C)cn3)cc(Cl)c2F)C1 (stereo not drawn) ?
(A) < 10 µM

(Q) Name the recorded IC50 for "Cn1cnc(-c2cc(Cl)c(F)c(C(=O)NNS(=O)(=O)C[C@H]3CC[C@H](NS(C)(=O)=O)CC3)c2)c1" .
(A) < 10 µM

(Q) I have this compound here, "Cn1cnc(-c2cc(Cl)c(F)c(C(=O)NNS(=O)(=O)c3cc(OCc4ccccc4)ccc3F)c2)c1" , and I need its recorded IC50.
(A) < 10 µM

(Q) IC50 for "CC(C)C(=O)N[C@H]1CC[C@H](CS(=O)(=O)NNC(=O)c2cc(-c3cn(C)cn3)cc(Cl)c2F)CC1" ?
(A) < 10 µM

(Q) // query IC50 value for entry "COCCOc1ccc(S(=O)(=O)NNC(=O)c2cc(-c3cn(C)cn3)cc(Cl)c2F)cc1"
(A) 10 to 50 µM

(Q) Return reported IC50; argument: "Cn1cnc(-c2cc(Cl)c(F)c(C(=O)NNS(=O)(=O)C[C@H]3C[C@@H](NS(C)(=O)=O)C3)c2)c1"
(A) < 10 µM

(Q) Any idea what IC50 was measured for "CCn1cnc(C)c1-c1cc(Cl)c(F)c(C(=O)NNS(=O)(=O)CC2CCCCC2)c1" ?
(A) > 100 µM

(Q) Look up IC50: "CCCn1cc(-c2cc(C)c(F)c(C(=O)NNS(=O)(=O)C3CCCCC3)c2)cn1"
(A) > 100 µM

(Q) Form field: reported IC50 of "Cn1cnc(-c2cc(Cl)c(F)c(C(=O)NNS(=O)(=O)c3cnn(C)n3)c2)c1"
(A) < 10 µM
